ASSAY_SYSTEM: UniProtKB Q96S37
Sequence (Q96S37 whole entry): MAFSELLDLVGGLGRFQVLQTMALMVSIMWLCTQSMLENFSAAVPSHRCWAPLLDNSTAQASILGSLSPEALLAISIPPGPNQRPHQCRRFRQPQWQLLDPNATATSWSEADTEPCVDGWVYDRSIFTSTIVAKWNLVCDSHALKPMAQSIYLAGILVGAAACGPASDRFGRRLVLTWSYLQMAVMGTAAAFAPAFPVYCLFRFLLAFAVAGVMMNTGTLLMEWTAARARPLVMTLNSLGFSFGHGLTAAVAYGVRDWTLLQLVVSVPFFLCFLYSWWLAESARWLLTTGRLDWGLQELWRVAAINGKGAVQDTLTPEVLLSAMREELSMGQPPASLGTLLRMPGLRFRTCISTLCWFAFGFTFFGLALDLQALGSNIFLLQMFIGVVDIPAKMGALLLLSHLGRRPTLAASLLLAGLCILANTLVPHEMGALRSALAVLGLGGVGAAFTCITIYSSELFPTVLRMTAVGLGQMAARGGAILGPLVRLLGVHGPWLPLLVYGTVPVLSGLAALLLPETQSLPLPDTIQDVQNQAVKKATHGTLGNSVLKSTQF
TEST: Inhibition of URAT1 (unknown origin)-mediated 14C-uric acid uptake expressed in HEK293 cells using 14C-uric acid as substrate preincubated for 30 mins followed by substrate addition and measured after 15 mins by liquid scintillation counting analysis
Assignment: determine reported pIC50 for the given compounds.
Answers are plain numbers, as −log10 of the molar value.

Illustrative cases are given below, each with its answer.
>>> quantitative_readout("N#Cc1ccc(Nc2cnccc2Sc2cccc([N+](=O)[O-])c2CC(=O)O)c2ccccc12")
5.46
>>> quantitative_readout("CN(c1cnccc1SC(C)(C)C(=O)O)c1ccc(C#N)c2ccccc12")
5.27
>>> quantitative_readout("N#Cc1ccc(Oc2cnccc2SCCCCCCC(=O)O)c2ccccc12")
5.42
>>> quantitative_readout("CN(c1cnccc1SCCCCC(=O)O)c1ccc(C#N)c2ccccc12")
5.45
>>> quantitative_readout("N#Cc1ccc(Nc2cnccc2SCCCCC(=O)O)c2ccccc12")
5.64

Value sought for every listed compound: pIC50.
1. CN(c1cnccc1SCCCCCCC(=O)O)c1ccc(C#N)c2ccccc12
2. CN(c1cnccc1SCc1ccc(-c2ccccc2C(=O)O)cc1)c1ccc(C#N)c2ccccc12
3. N#Cc1ccc(Nc2cnccc2SCc2ccc(C(=O)O)cc2)c2ccccc12
4. COc1ccc(Sc2ccncc2Oc2ccc(C#N)c3ccccc23)c(CC(=O)O)c1

1. 5.33
2. 5.34
3. 5.59
4. 4.85

For `N#Cc1ccc(Nc2cnccc2SCc2cccc(C(=O)O)c2)c2ccccc12` , what is its reported pIC50?
5.71
